- target.of.assay: CYP21 (steroid 21-hydroxylase) (Homo sapiens, UniProt P08686)
- Sequence (P08686 whole entry): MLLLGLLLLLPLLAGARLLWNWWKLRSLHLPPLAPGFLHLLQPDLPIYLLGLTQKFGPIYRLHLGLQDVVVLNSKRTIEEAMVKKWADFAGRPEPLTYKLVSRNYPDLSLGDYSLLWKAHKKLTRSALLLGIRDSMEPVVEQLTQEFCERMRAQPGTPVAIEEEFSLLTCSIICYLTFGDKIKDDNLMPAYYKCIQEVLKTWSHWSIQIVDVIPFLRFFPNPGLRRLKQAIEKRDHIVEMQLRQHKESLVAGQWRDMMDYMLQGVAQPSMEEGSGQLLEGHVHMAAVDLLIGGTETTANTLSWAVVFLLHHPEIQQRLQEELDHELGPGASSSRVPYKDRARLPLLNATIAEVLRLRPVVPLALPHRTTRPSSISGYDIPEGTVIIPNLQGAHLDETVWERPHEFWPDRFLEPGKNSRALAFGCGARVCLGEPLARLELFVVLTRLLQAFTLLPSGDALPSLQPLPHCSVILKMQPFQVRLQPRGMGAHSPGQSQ
- experimental.protocol: Inhibition of human CYP21 transfected in HEK293 cells assessed as decrease in conversion of progesterone to 11-deoxycorticosterone preincubated for 5 hrs followed by progesterone addition measured after 20 hrs by ELISA
- Assay type: cell-based
- Set-up: concentration or dose not given beside the values
- measurement.context: HEK293 cells transfected with human CYP21, probe progesterone

# compound, inhibition at 20 h
measured = [
    ("C[C@]12CCC(=O)C=C1C=C[C@@H]1[C@@H]2CC[C@]2(C)C(c3cncc(F)c3)=CC[C@@H]12", "≥ 50%"),
    ("CC1C[C@@H]2[C@H](CC[C@]3(C)C(c4cccnc4)=CC[C@@H]23)[C@@]2(C)C=CC(=O)C=C12 (stereo partly specified)", "≥ 50%"),
    ("C[C@]12CC(F)(F)CC1CC[C@@H]1[C@@H]2CC[C@]2(C)C(c3cccnc3)=CC[C@@H]12 (stereo partly specified)", "10 to 50%"),
    ("CCNC(=S)N[C@@H]1CC[C@@]2(C)C(=CC[C@@H]3[C@@H]2CC[C@]2(C)C(c4cccnc4)=CC[C@@H]32)C1", "10 to 50%"),
    ("COC1CC[C@@]2(C)C(=CC[C@@H]3[C@@H]2CC[C@]2(C)C(c4cncc(C)c4)=CC[C@@H]32)C1 (stereo partly specified)", "< 10%"),
    ("C[C@]12CCNC(=O)C=C1C1CC1[C@@H]1[C@@H]2CC[C@]2(C)C(c3cccnc3)=CC[C@@H]12 (stereo partly specified)", "≥ 50%"),
]

* * *

- target.of.assay: CYP21 (steroid 21-hydroxylase) (Homo sapiens, UniProt P08686)
- experimental.protocol: Inhibition of human CYP21 transfected in HEK293 cells assessed as decrease in conversion of progesterone to 11-deoxycorticosterone preincubated for 5 hrs followed by progesterone addition measured after 20 hrs by ELISA
- Type: cell-based
- Parameters: concentration or dose not given beside the values
- measurement.context: HEK293 cells transfected with human CYP21, probe progesterone
Below is a list of entries, each paired with its recorded inhibition at 20 h value.
metric.name: inhibition at 20 h

# compound, value.reported
rows = [
    ("C[C@]12CC[C@H]3[C@@H](CCC4=C/C(=N/O)CC[C@@]43C)C1=CC=C2c1cccnc1", "≥ 50%"),
    ("Cc1cncc(C2=CC=C3[C@@H]4CCC5CNC(=O)CC[C@]5(C)[C@H]4CC[C@]23C)c1 (some centres undefined)", "10 to 50%"),
    ("CC1(C)C(=O)CC[C@@]2(C)C1=CC[C@@H]1[C@@H]2CC[C@]2(C)C(c3cccnc3)=CC[C@@H]12", "< 10%"),
    ("C[C@]12CCC(=O)C=C1C1(CC1)C[C@@H]1[C@@H]2CC[C@]2(C)C(c3cccnc3)=CC[C@@H]12", "≥ 50%"),
    ("C[C@]12CC[C@H]3[C@@H](CC=C4C=CCC[C@@]43C)C1=CC=C2c1cccnc1", "10 to 50%"),
    ("Cc1ccncc1C1=CC=C2[C@@H]3CC[C@H]4CNC(=O)CC[C@]4(C)[C@H]3CC[C@]12C", "10 to 50%"),
    ("CC1C[C@H]2C3=CC=C(c4cccnc4)[C@@]3(C)CC[C@@H]2[C@@]2(C)C=CC(=O)C=C12 (some centres undefined)", "≥ 50%"),
    ("CC1C[C@H]2C3=CC=C(c4ccc(F)nc4)[C@@]3(C)CC[C@@H]2[C@@]2(C)CCNC(=O)C=C12 (some centres undefined)", "10 to 50%"),
    ("C[C@]12CC[C@H]3[C@@H](CC=C4C[C@H](NC(=O)C5CC5)CC[C@@]43C)C1=CC=C2n1ccnc1", "10 to 50%"),
    ("CC(=O)N(C)[C@H]1CC[C@@]2(C)C(CC[C@@H]3[C@@H]2CC[C@]2(C)C(c4cncc(C)c4)=CC[C@@H]32)C1 (some centres undefined)", "10 to 50%"),
    ("CC1(O)CC2CC[C@@H]3C(CC[C@]4(C)C(c5cccnc5)=CC[C@@H]34)[C@@]2(C)C1 (single isomer, unassigned)", "10 to 50%"),
    ("CC1(C)C2=CC[C@@H]3[C@H](CC[C@]4(C)C(c5cccnc5)=CC[C@@H]34)[C@@]2(C)CC/C1=N\\O", "< 10%"),
    ("CC1C[C@@H]2[C@H](CC[C@]3(C)C(c4cncc(C(F)F)c4)=CC[C@@H]23)[C@@]2(C)CCC(=O)C=C12 (some centres undefined)", "10 to 50%"),
    ("C[C@]12CC[C@H]3[C@@H](CCC4=CC(=O)C=C[C@@]43C)C1=CC=C2c1cccnc1", "≥ 50%"),
    ("C[C@]12CCNC(=O)CC1CC[C@@H]1[C@@H]2CC[C@]2(C)C(c3cncc(F)c3)=CC[C@@H]12 (some centres undefined)", "10 to 50%"),
    ("C[C@]12CC[C@H]3[C@@H](CCC4=CC(=O)CC[C@@]43C)C1=CC=C2c1cncc(F)c1", "≥ 50%"),
    ("Cc1ccncc1C1=CC[C@H]2[C@@H]3CC[C@H]4CC(=O)NCC[C@]4(C)[C@H]3CC[C@]12C", "10 to 50%"),
    ("C[C@]12CCC3(CCC(=O)O3)CC1CC[C@@H]1[C@@H]2CC[C@]2(C)C(c3cccnc3)=CC[C@@H]12 (some centres undefined)", "< 10%"),
    ("CC[C@@]1(O)CC[C@@]2(C)C(CC[C@@H]3[C@@H]2CC[C@]2(C)C(c4cccnc4)=CC[C@@H]32)C1 (some centres undefined)", "< 10%"),
    ("CC1CC2[C@H](CC[C@]3(C)C(c4cccnc4)=CC[C@@H]23)[C@@]2(C)CCC(C)(O)C=C12 (some centres undefined)", "10 to 50%"),
    ("CCc1ccncc1C1=CC=C2[C@@H]3CCC4C[C@@H](O)CC[C@]4(C)[C@H]3CC[C@]12C (some centres undefined)", "< 10%"),
    ("CC1C[C@@H]2[C@H](CC[C@]3(C)C(c4cncc(C(F)F)c4)=CC[C@@H]23)[C@@]2(C)C=CC(=O)C=C12 (some centres undefined)", "10 to 50%"),
    ("CCC(=O)N1CCC2CC[C@@H]3[C@H](CC[C@]4(C)C(c5cccnc5)=CC[C@@H]34)[C@@]2(C)CC1 (some centres undefined)", "10 to 50%"),
    ("C[C@]12CCNC(=O)C=C1C1CC1[C@@H]1[C@@H]2CC[C@]2(C)C(c3cncc(F)c3)=CC[C@@H]12 (some centres undefined)", "≥ 50%"),
    ("C[C@]12CC[C@@H](NC(=O)C3CC3)CC1CC[C@H]1C3CC=C(c4cccnc4)[C@@]3(C)CC[C@@H]12 (single isomer, unassigned)", "≥ 50%"),
    ("CC(=O)Nc1cncc(C2=CC[C@H]3[C@@H]4CC=C5C[C@@H](O)CC[C@]5(C)[C@H]4CC[C@]23C)c1", "< 10%"),
    ("CC1C(O)CC[C@@]2(C)C1CC[C@@H]1[C@@H]2CC[C@]2(C)C(c3cncc(F)c3)=CC[C@@H]12 (some centres undefined)", "< 10%"),
    ("C[C@]12CC[C@@](O)(C3CC3)CC1CC[C@@H]1[C@@H]2CC[C@]2(C)C(c3cccnc3)=CC[C@@H]12 (some centres undefined)", "10 to 50%"),
    ("CN1C(=O)CC[C@@]2(C)C1=CC[C@@H]1[C@@H]2CC[C@]2(C)C(c3cnccc3F)=CC[C@@H]12", "10 to 50%"),
]
